system_tested: T1, BRD^Baz2B T2138I (human, UniProt Q9UIF8 2054-2168, T2138I, fluorescent label (Monolith NT Protein Labelling Kit RED-NHS))
T1 construct: bromodomain (BRD) of human Baz2B with a cancer-associated point mutation, made on pNIC28-Bsa4-BAZ2B-BRD; Same limits as m1; mutation found in multiple myeloma; source: E. coli BL21(DE3)-R3-pRARE2, purified (Ni-NTA, Sephadex 75)
T1 sequence: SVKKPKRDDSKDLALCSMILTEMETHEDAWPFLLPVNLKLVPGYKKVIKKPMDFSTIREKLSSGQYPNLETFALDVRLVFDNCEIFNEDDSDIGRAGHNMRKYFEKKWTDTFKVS
measurement_protocol: MST; 100 nM fluorescently labelled (RED-NHS) BRD^Baz2B, peptide (H3 or H3K14ac) titrated; MST buffer 150 mM Tris-HCl, 50 mM NaCl, 10 mM MgCl2, pH 7.6, 0.0025% Pluronic, 200 ng/ul BSA; 25 C, 20% MST power; at least triplicate
details: both partners purified
endpoint_label: Kd (µM)
The figure you give is taken to be in µM; do not add the unit.

Could you tell me which Kd is on file for Ac-TARKSTGGKAPRKQL-NH2 (N-terminal tail of histone H3, residues 6-20; also called unmodified H3 peptide; unmodified H3K14 tail peptide; source: synthetic peptide, bought: alta Bioscience) [H3 peptide (Ac-TARKSTGGKAPRKQL-NH2)] ?
211

# lookup: Kd of Ac-TARKSTGGK(Ac)APRKQL-NH2 (N-terminal tail of histone H3, residues 6-20; also called acetylated H3 tail peptide; acetylated at K14 (K14ac) N-terminal H3 histone tail peptide; source: synthetic peptide, bought: alta Bioscience) [H3K14ac peptide (Ac-TARKSTGGK(ac)APRKQL-NH2)]
94
